Kindly find below IC50 information for Mineralocorticoid receptor (Homo sapiens, UniProt P08235) taken from the literature.
SUBJECT_OF_TEST: Mineralocorticoid receptor (Homo sapiens, UniProt P08235)
Sequence (P08235 whole entry): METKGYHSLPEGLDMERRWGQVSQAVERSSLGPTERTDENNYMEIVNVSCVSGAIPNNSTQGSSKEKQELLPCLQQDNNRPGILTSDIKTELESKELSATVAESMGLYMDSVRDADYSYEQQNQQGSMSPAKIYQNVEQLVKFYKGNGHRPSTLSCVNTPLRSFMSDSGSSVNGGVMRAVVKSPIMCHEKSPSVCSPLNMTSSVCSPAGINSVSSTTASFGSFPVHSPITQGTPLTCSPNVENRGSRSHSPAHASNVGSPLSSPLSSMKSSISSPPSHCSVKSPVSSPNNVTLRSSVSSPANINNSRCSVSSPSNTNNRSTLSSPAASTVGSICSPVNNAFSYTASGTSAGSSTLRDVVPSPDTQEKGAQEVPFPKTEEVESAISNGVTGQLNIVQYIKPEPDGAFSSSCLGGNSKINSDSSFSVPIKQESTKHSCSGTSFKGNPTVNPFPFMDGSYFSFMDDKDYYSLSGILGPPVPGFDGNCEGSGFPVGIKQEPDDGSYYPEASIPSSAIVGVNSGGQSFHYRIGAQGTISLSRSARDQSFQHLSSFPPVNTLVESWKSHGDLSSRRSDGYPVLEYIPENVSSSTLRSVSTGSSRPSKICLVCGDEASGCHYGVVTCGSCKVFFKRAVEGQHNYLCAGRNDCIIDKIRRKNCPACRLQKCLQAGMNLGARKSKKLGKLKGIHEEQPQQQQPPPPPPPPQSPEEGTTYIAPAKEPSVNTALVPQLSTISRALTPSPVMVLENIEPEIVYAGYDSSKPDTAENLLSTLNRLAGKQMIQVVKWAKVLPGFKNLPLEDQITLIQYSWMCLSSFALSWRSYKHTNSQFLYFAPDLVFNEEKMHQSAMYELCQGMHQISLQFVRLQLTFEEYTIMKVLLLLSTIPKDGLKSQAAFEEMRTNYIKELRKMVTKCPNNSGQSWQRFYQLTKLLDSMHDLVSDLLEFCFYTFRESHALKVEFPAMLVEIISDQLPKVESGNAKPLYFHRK
PARAMETER_MEASURED: IC50 (nM)

COMPOUND	PARAMETER_MEASURED	RELATION_SIGN	QUANTITATIVE_RESULT
COc1cccc(CNC(=O)[C@@]2(Cc3ccccc3)OC(=O)N([C@H](C)c3ccccc3)C2=O)c1	IC50	=	300
CCC(Cc1cccc(C)c1C)NS(=O)(=O)c1c(C)cc(C)cc1C (configuration not stated)	IC50	=	350
CC(C)(CC(O)(C(=O)Nc1ccc2c(c1)COC2=O)C(F)(F)F)c1ccccc1 (configuration not stated)	IC50	=	215
Cc1cc(C)c(S(=O)(=O)NC(Cc2c[nH]c3cc(C#N)ccc23)C(F)(F)F)c(C)c1 (configuration not stated)	IC50	=	280
COc1cc(CNC(=O)C2(Cc3ccccc3)CN(Cc3ccccc3)C(=O)N2)cc(OC)c1 (configuration not stated)	IC50	>	40000
COC(=O)C1=C(C)NC(C)=C(C(=O)OC(C)(C)C)C1c1ccc(F)cc1Cl (configuration not stated)	IC50	=	78
CCC1=C(C(=O)OC)C(c2ccccc2Cl)C(C#N)=C(C)N1 (configuration not stated)	IC50	=	232

====

Compiled from multiple publications: IC50 readings for UniProt P08235.
Assign classes using reported IC50 values and the ranges group 1 (below 80 nM), group 2 (80 nM to below 400 nM), group 3 (400 nM or more), please.

COMPOUND	GROUP_LABEL
Cc1ccc(O)cc1C(C)(C)CC(O)(Cn1ccc(=O)c2ccccc21)C(F)(F)F (configuration not stated)	group 3
CC(C)(CC(O)(Cc1cc2ccncc2[nH]1)C(F)(F)F)c1cccc(F)c1 (configuration not stated)	group 3
COC(=O)C1=C(C)NC(C)=C(C(=O)OC(C)(C)C)[C@@H]1c1cccc([N+](=O)[O-])c1	group 1
COc1ccc(F)cc1C(C)(C)CC(O)(CN1CCOCC1)C(F)(F)F (configuration not stated)	group 3
COc1cc(CNC(=O)[C@@]2(Cc3ccccc3)OC(=O)N([C@H](C)c3ccccc3)C2=O)cc(OC)c1	group 1
COc1cc(CNC(=O)[C@@]2(Cc3ccccc3)OC(=O)N(Cc3ccccc3)C2=O)cc(OC)c1	group 3
COc1cc(CNC(=O)[C@@]2(Cc3ccc(F)cc3)OC(=O)N([C@H](C)c3ccccc3)C2=O)cc(OC)c1	group 2
COc1ccc(F)cc1C(C)(C)CC(O)(Cc1cc2cnccc2[nH]1)C(C)(C)C (configuration not stated)	group 3
COc1ccc(F)cc1C(C)(C)C[C@@](O)(Cc1cc2cnccc2[nH]1)C(F)(F)F	group 1
C[C@H](c1ccccc1)N1C(=O)O[C@](Cc2ccccc2)(C(=O)NCc2cccc(Cl)c2)C1=O	group 2
CCCC1=C(C(=O)OCC)C(c2ccnc3ccccc23)C(C#N)=C(C)N1 (racemic)	group 1
COC(=O)C1=C(CCl)NC(C)=C(C#N)[C@H]1c1ccc(F)cc1Cl	group 1
CC(C)[C@H](NC(=O)C(C)(F)F)[C@H](Oc1ccc2c(cnn2-c2ccc(=O)n(C)c2)c1)c1ccccc1	group 3
COc1ccc(F)cc1-c1ccc2c(c1)C(CSCCc1ccccc1)=CC(C)(C)N2	group 3
Cc1cc(C)c(S(=O)(=O)NC(Cc2c[nH]c3ccc(C#N)cc23)C(F)(F)F)c(C)c1 (configuration not stated)	group 2
COc1ccc(F)cc1C(C)(C)CC(O)(Cc1cc2ccccc2[nH]1)C(F)(F)F (configuration not stated)	group 2
COCCN1C(C)=C(C#N)C(c2ccc(F)cc2F)C(C(=O)OC(C)(C)C)=C1C (configuration not stated)	group 3
COc1ccc(F)cc1C(C)(C)C[C@@](O)(Cc1cc2ccncc2[nH]1)C(F)(F)F	group 2
COc1cccc2c1-c1ccc(NS(C)(=O)=O)cc1C(c1cccc(C)c1)O2 (configuration not stated)	group 2
C[C@H](c1ccccc1)N1C(=O)O[C@](Cc2ccccc2)(C(=O)NCc2ccc3cnccc3c2)C1=O	group 3
CCOC(=O)C1=C(c2ccc(Cl)cc2)NC(C)=C(C#N)C1c1ccccc1Cl (configuration not stated)	group 3
COC(=O)C1=C(C)NC(C)=C(C(=O)OC(C)(C)C)C1c1ccc(O)cc1 (configuration not stated)	group 3
COc1ccc(F)cc1C(C)(C)CC(O)(Cn1ccc(=O)c2cnccc21)C(F)(F)F (configuration not stated)	group 2
COC(=O)C1=C(Cn2cnnn2)NC(C)=C(C#N)C1c1ccc(F)cc1Cl (configuration not stated)	group 1
Cc1cc(C)c(S(=O)(=O)NC(Cn2cc(C#N)c3ccccc32)C(F)(F)F)c(C)c1 (configuration not stated)	group 1
